# TARGET_UNDER_TEST: human α4β2 nAChR (Homo sapiens, UniProt P17787+P43681)
# METHOD_DESCRIPTION: [3H]cytisine competition binding on membrane homogenates of SH-EP-hα4β2 clonal cells
# Design: expressed in transfected cells
# COND: α4β2 IC50, displacement of 1 nM [3H]cytisine, mean ± SEM of four experiments
OUTCOME_MEASURE: IC50 (nM)
Lab book: enter the figure in nM, no units written.

**Query** Item `CN1CCC[C@H]1COc1cccc(Br)c1` has what recorded IC50?
**Result** 188

---

# TARGET_UNDER_TEST: human α4β2 nAChR (Homo sapiens, UniProt P17787+P43681)
# METHOD_DESCRIPTION: two-electrode voltage clamp on human α4β2 nAChR expressed in Xenopus laevis oocytes
# Assay type: cell-based
# Parameters: expressed in transfected cells; host or cells: Xenopus laevis oocytes (nuclear cDNA injection)
# COND: Xenopus laevis oocytes, in words
OUTCOME_MEASURE: agonist profile at human α4β2 nAChR

[[record]]
compound_string = "CN1CCC[C@H]1COc1cccc(Cl)c1"
measured_result = "partial agonist"

[[record]]
compound_string = "CN1CCC[C@H]1COc1cccc(Br)c1"
measured_result = "partial agonist"

[[record]]
compound_string = "CN1CCC[C@H]1COc1ccccc1"
measured_result = "partial agonist"

